Tested on: rat mesangial cells
ASSAY_EXPLANATION: Proline incorporation assay: reduction of TGF-beta 1 stimulated proline incorporation
Format: cell-based
MEASUREMENT_CONTEXT: Mesangial cell, 44 h, 10 μM compound, TGF-beta 1 5 ng/mL, read-out: Percentage Reduction of TGF-Beta 1 Stimulated Proline Incorporation
Kindly state inhibition at 10 µM for each of the entries shown.
Unit % implied. Number only.

// query inhibition at 10 µM value for entry COc1cc(/C=C/c2nc3ccccc3c(=O)o2)ccc1OC(C)=O [FT109]
3

Do the same for COc1ccc(/C=C/C(=O)n2c(=O)n(C)c3ccccc32)cc1OC [FT123] please
0

Do the same for COc1ccc(/C=C/C(=O)N2CCc3ccccc32)cc1OC [FT113] please
20

Do the same for COc1ccc(/C=C/c2nc3ccccc3c(=O)o2)cc1OC(C)=O [FT110] please
0

Do the same for COc1ccc(/C=C/c2nc3ncccc3c(=O)o2)cc1OC [FT102] please
0

Do the same for O=c1oc(/C=C/c2ccc(OC(F)F)c(OC(F)F)c2)nc2ccccc12 [FT108] please
75

Do the same for C#CCOc1ccc(/C=C/c2nc3ccccc3c(=O)o2)cc1OC [FT107] please
0

Do the same for COc1ccc(/C=C/c2nc3ccccc3c(=O)o2)cc1OC [FT106] please
0

Do the same for COc1ccc(/C=C/C2=NS(=O)(=O)c3ccccc3N2)cc1OC [FT98] please
30

Do the same for COc1ccc(/C=C/C(=O)N2CC(=O)Nc3ccccc32)cc1OC [FT125] please
0
